Numbers sourced from PubChem BioAssay (NCI).

# Tested on: MOLT-4 leukemia
# test_method_notes: NCI-60 one-dose screen, 48 h (100 = growth as untreated, 0 = no growth, -100 = all killed)
# test_context: 10 µM unless noted
# Experimental: Growth inhibition of the MOLT-4 human tumor cell line is measured as a screen for anti-cancer activity. Cells are grown in 96 well plates and exposed to the test compound for 48 hours. Compounds are tested at a single concentration, which is 10^-5 M for most compounds. The reported endpoint is percent growth (GI% or GIPRCNT), where numbers from 0 - 100% represent growth inhibition, and numbers from -100% - 0 represent cell death. For example, a value of 40 represents 60% growth inhibition. […]
About 83,000 compounds went through this panel and 20% of them were active in at least one assay; those are over-represented in the sample as a whole.
Each record's class is read off its growth using these ranges: c1 = under 10%, c2 = from 10% up to 50%, c3 = 50% and over

Worked examples, 10 compounds total:
[ask] Please indicate the class for CC1=Cc2ccccc2OC12C=Cc1ccccc1O2 (stereo unspecified) based on its growth.
[reply] c3

[ask] Please indicate the class for `CN1CCN(Cc2ccc(NC(=O)c3cncc(C#Cc4cnc5ccc(N6CCOCC6)nn45)c3)cc2C(F)(F)F)CC1` based on its growth.
[reply] c1

[ask] Please indicate the class for `Cc1ccc([C@H]2c3[nH]c4ccccc4c3C[C@H]3C(=O)N(CCCCCCC(=O)NO)CC(=O)N23)s1` based on its growth.
[reply] c2

[ask] Please indicate the class for `CCOC(=O)C(=O)Nc1ccc2c(ccn2C(=O)c2cccc(F)c2)c1` based on its growth.
[reply] c3

[ask] Please indicate the class for `Clc1ccc2c(N/N=C/c3c[nH]c4ccccc34)ccnc2c1` based on its growth.
[reply] c1

[ask] Please indicate the class for `COc1ccc2c(c1)c(-c1nnc(N)nc1-c1c[nH]c3ccc(F)cc13)cn2C` based on its growth.
[reply] c2

[ask] Please indicate the class for `CC(=O)c1cc(C(=O)N2c3ccccc3Sc3ccccc32)n2c1ccc1ccccc12` based on its growth.
[reply] c3

[ask] Please indicate the class for `Cc1ccc2c(n1)C(=O)C(Cl)=C(Nc1ccc(C#N)cc1)C2=O` based on its growth.
[reply] c1

[ask] Please indicate the class for `CN(C)CC(=O)Nc1nc(-c2cccc(NS(=O)(=O)c3cccc4c(N(C)C)cccc34)c2)cs1` based on its growth.
[reply] c3

[ask] Please indicate the class for `CN1CCN(CC#CCn2c3c(c4ccccc42)C[C@]2(C)[C@H]4CC=C5[C@@H]6CC(C)(C)CC[C@]6(C(=O)N6CCOCC6)CC[C@@]5(C)[C@]4(C)CC[C@H]2C3(C)C)CC1` based on its growth.
[reply] c2

Continuing:
[ask] Please indicate the class for `C/C(=N\NC(N)=S)c1nnn(-c2ccc([N+](=O)[O-])cc2)c1C` based on its growth.
[reply] c3

[ask] Please indicate the class for CC[C@]12C=CCN3CC[C@]4(C(=C(C(=O)OC)C1)Nc1cc5c(cc14)[C@@H]1[C@H](O5)[C@@H](O)[C@@]4(CC)CC(C(=O)OC)=C5Nc6cc(O)ccc6[C@@]56CCN1C46)C32 (stereo partly specified) based on its growth.
[reply] c1

[ask] Please indicate the class for `N#C/C(=C\c1ccc(-c2ccc(Cl)c(Cl)c2)o1)C(=O)Nc1ncc(Cc2ccc(Cl)cc2)s1` based on its growth.
[reply] c3

[ask] Please indicate the class for `N#Cc1c(-c2cccs2)cc(-c2cnccn2)nc1SCC(=O)N/N=C/c1ccccc1` based on its growth.
[reply] c3

[ask] Please indicate the class for `Cc1ccc(N2CCN(C3=C(Cl)C(=O)c4ncccc4C3=O)CC2)cc1` based on its growth.
[reply] c2

[ask] Please indicate the class for NC1[C@H]2CN(c3cnc(C(=O)Nc4cc(F)cc5cccnc45)cn3)C[C@@H]12 (stereo partly specified) based on its growth.
[reply] c2

[ask] Please indicate the class for `CNC(=O)Nc1ccc(Nc2cc(-c3ccc(-n4cccn4)cc3)[nH]n2)c(C)c1` based on its growth.
[reply] c3

[ask] Please indicate the class for `O=C1C(N2CCN(c3ccccc3)CC2)=C(Cl)C(=O)c2ncccc21` based on its growth.
[reply] c1

[ask] Please indicate the class for `Cc1ccc2c(n1)C(=O)C(Cl)=C(Nc1cccc(C)c1C)C2=O` based on its growth.
[reply] c1

[ask] Please indicate the class for `Cc1ccccc1NC(=O)Nc1nc2ccc([N+](=O)[O-])cc2s1` based on its growth.
[reply] c2

[ask] Please indicate the class for `NC(=O)n1c(=O)n(-c2cccc(C(F)(F)F)c2)c(=O)c2cc(-c3ccc(F)cc3F)ccc21` based on its growth.
[reply] c1

[ask] Please indicate the class for `Cc1cc(Br)ccc1-n1cc(C#N)c(N)c1C(=O)c1ccc(Br)cc1` based on its growth.
[reply] c3
